test system: L1210 leukemia ip in BDF1 mice, survival T/C; experiment: NCI In Vivo Anticancer Drug Screen. Data for tumor model L1210 Leukemia (intraperitoneal) in B6D2F1 (BDF1) mice; conditions: endpoint: mean survival time; dose: 400.0 mg/kg/injection; schedule: Q01DX001 (ip); vehicle: carboxymethylcellulose (CMC); higher = longer survival
Toxic doses and inconclusive results are not listed.
measured.property: T/C

What value of T/C has been recorded for this entry: O=C1c2ccccc2-c2cccc([N+](=O)[O-])c21
97 % of control

Here is the next compound: COc1cc2c(c(O)c1OCC=C(C)C)c(=O)c1ccccc1n2C
88 % of control

Here is the next compound: Nc1ccc([N+](=O)[O-])c2ccccc12
87 % of control

Here is the next compound: BrC1CC2CCCCC2CC1Br (configuration not stated)
101 % of control

Here is the next compound: OCC1CCCC1
94 % of control

Here is the next compound: NNc1ccccc1C(=O)O
94 % of control

Here is the next compound: OC(c1nc2ccc(Cl)cc2[nH]1)C(O)C(O)C(O)c1nc2ccc(Cl)cc2[nH]1 (configuration not stated)
103 % of control

Here is the next compound: COc1cccc(/C=C2\CCNC2=O)c1OC
96 % of control

Here is the next compound: O=C(c1ccccc1)c1ccc(Br)cc1O
100 % of control

Here is the next compound: O=C(O)c1cc(N=Nc2ccc(S(=O)(=O)Nc3nccs3)cc2)ccc1O
101 % of control

Here is the next compound: C[C@]12CCC(=O)C=C1CC[C@H]1[C@@H]3CCC(=O)O[C@@]3(C)CC(=O)[C@@]12F
97 % of control

Here is the next compound: Clc1ccc(/C=N/N2CCN(/N=C/c3ccc(Cl)cc3)CC2)cc1
96 % of control

----------
Give T/C for every item shown.
tested on: L1210 leukemia ip in BDF1 mice, survival T/C; assay: NCI In Vivo Anticancer Drug Screen. Data for tumor model L1210 Leukemia (intraperitoneal) in B6D2F1 (BDF1) mice; conditions: endpoint: mean survival time; dose: 20.0 mg/kg/injection; schedule: Q01DX001 (ip); vehicle: saline; higher = longer survival
Toxic doses and inconclusive results are not listed.

What value of T/C has been recorded for this entry: CC(=O)[O][Hg][c]1ccc(Cl)cc1
96 % of control

Here is the next molecule: CC1(C)N=C(N)N=C(N)N1c1cccc(OCc2cccc(N)c2)c1
96 % of control

Here is the next molecule: NC(=O)c1cccs1
98 % of control

Here is the next molecule: CCCC(C)C1(CC)C(=O)NC(=O)NC1=O (stereo not drawn)
97 % of control

Here is the next molecule: Cc1c(CCO)sc[n+]1Cc1ccccc1[N+](=O)[O-]
102 % of control

Here is the next molecule: c1ccc2c(c1)ccc1nc3ccc4ccccc4c3cc12
97 % of control

Here is the next molecule: O=C1CCN(Cl)C(=O)N1Cl
97 % of control

Here is the next molecule: O=C(CBr)c1ccncc1
94 % of control

----------
Give T/C for every item shown.
tested on: L1210 leukemia ip in BDF1 mice, survival T/C; test: NCI In Vivo Anticancer Drug Screen. Data for tumor model L1210 Leukemia (intraperitoneal) in B6D2F1 (BDF1) mice; conditions: endpoint: mean survival time; dose: 400.0 mg/kg/injection; schedule: Q01DX001 (ip); vehicle: saline; higher = longer survival
Toxic doses and inconclusive results are not listed.

What value of T/C has been recorded for this entry: COc1c(Br)c(-c2ccccc2)nc2ccccc12
92 % of control

Here is the next compound: CC(C)CCC1(C)CC(=O)Nc2ccccc21 (configuration not stated)
95 % of control

Here is the next compound: O=NN1CCCCCCC1C(=O)O (configuration not stated)
102 % of control

Here is the next compound: CC(C)C(O)CC(=O)NN (configuration not stated)
102 % of control

Here is the next compound: CC(=O)NC1CC(CO)C(O)C1O (configuration not stated)
101 % of control

Here is the next compound: O=S1(=O)CCS(=O)(=O)C12CCCCC2
90 % of control

Here is the next compound: CNS(=O)(=O)c1ccccc1C(=N)c1ccccc1
100 % of control

Here is the next compound: CCOC(=O)C1CC2(Cl)C(Cl)=C(Cl)C1(Cl)C2(Cl)Cl (configuration not stated)
98 % of control

Here is the next compound: COc1ccccc1/C=C1\SC(=O)N(CCNC(C)=O)C1=O
96 % of control

Here is the next compound: NNC(=O)c1cc(N)nc(Cl)c1
98 % of control

Here is the next compound: O=C1NC(=O)C(c2cccc(F)c2)N1 (configuration not stated)
111 % of control

Here is the next compound: Cc1ccc(O)c[n+]1[O-]
100 % of control

Here is the next compound: c1ccc2c(c1)NC(c1cccc3ccccc13)S2 (configuration not stated)
94 % of control

Here is the next compound: Sc1ccccc1-n1c(-c2ccccc2)ccc1-c1ccccc1
87 % of control

Here is the next compound: Cc1cn(C2OC(CO)C(O[Si](C)(C)C)C(O[Si](C)(C)C)C2O[Si](C)(C)C)c(=O)[nH]c1=O (configuration not stated)
97 % of control

Here is the next compound: CCCCC(=O)N/N=C/C=C/c1ccccc1[N+](=O)[O-]
105 % of control

Here is the next compound: CC(C#N)(CCC(=O)O)N=NC(C)(C#N)CCC(=O)O (configuration not stated)
108 % of control

Here is the next compound: NC(=S)N/N=C\c1ncnc2ccccc12
112 % of control

Here is the next compound: Cc1cccc(N2CCN(CC(O)COc3cccc4ccccc34)CC2)c1 (configuration not stated)
95 % of control

Here is the next compound: O=C1CC2c3ccccc3C1C1C(=O)OC(=O)C21 (configuration not stated)
93 % of control

Here is the next compound: CCOC(=O)/C=C(\C)C(C)(C)C(C)=O
98 % of control

Here is the next compound: COC(=O)CC(N)C(=O)OC (configuration not stated)
90 % of control

Here is the next compound: CC(=O)[O][Ge]([CH2]CC(C)C)([CH2]CC(C)C)[CH2]CC(C)C
118 % of control

Here is the next compound: O=[N+]([O-])c1cc2cnn(CO)c2cc1[N+](=O)[O-]
100 % of control

Here is the next compound: c1ccc(C2SC(c3ccccc3)SC(c3ccccc3)S2)cc1 (configuration not stated)
92 % of control

Here is the next compound: O=C1NC(=O)C(c2ccc(Cl)cc2)N1 (configuration not stated)
96 % of control

Here is the next compound: Cc1c2c(cc3c1sc1ccccc13)CCCC2=O
101 % of control

----------
test system: L1210 leukemia ip in BDF1 mice, survival T/C; assay: NCI In Vivo Anticancer Drug Screen. Data for tumor model L1210 Leukemia (intraperitoneal) in B6D2F1 (BDF1) mice; settings: endpoint: mean survival time; dose: 200.0 mg/kg/injection; schedule: Q01DX009 (ip); vehicle: Klucel (hydroxypropylcellulose) (HPC); higher = longer survival
Inconclusive results and toxic doses are left out.
Give T/C for every item shown.

What value of T/C has been recorded for this entry: CC(=O)c1cccc(NC(=O)OC2CCCC(C)C2)c1 (configuration not stated)
101 % of control

Here is the next compound: O=C(NCCBr)Nc1ccc2c(c1)OCO2
102 % of control

Here is the next compound: COc1ccccc1C(=O)N/N=C/c1ccncc1
94 % of control

Here is the next compound: COc1ccc(CC(CO)C(CO)Cc2ccc(OC)c(OC)c2)cc1OC (configuration not stated)
93 % of control

Here is the next compound: Cc1cc(OC(=O)Nc2ccc(F)c([N+](=O)[O-])c2)cc(C)c1Cl
93 % of control

Here is the next compound: c1ccc(SCN(CSc2ccccc2)c2ccccc2)cc1
101 % of control

Here is the next compound: CC(=O)c1ccccc1NC(=O)c1ccccc1F
113 % of control

Here is the next compound: Cc1ccc(NC(=O)OC/C=C/c2ccccc2)cc1NC(=O)OC/C=C/c1ccccc1
93 % of control

Here is the next compound: CCOC(=O)c1cc(Cl)c(N)c(Cl)c1
90 % of control

Here is the next compound: O=C(O)CCSSCCC(=O)O
87 % of control

Here is the next compound: N#Cc1c(N)sc(N)c1C#N
89 % of control

Here is the next compound: CS(=O)(=O)Oc1cccc(C2CS(=O)(=O)c3ccccc3N2)c1 (configuration not stated)
101 % of control

Here is the next compound: CCO/C=N\c1[nH]ncc1C#N
103 % of control

Here is the next compound: CN(C)C(=O)Sc1c(Cl)cc(S(=O)(=O)F)cc1Cl
105 % of control

Here is the next compound: O=C1/C(=C/c2ccccc2[N+](=O)[O-])Cc2ccccc21
93 % of control

Here is the next compound: COc1ccc(C=O)c(O)c1
103 % of control

Here is the next compound: COC(=O)/C=C/c1ccc(OC)cc1
103 % of control

Here is the next compound: Cc1ccc(C)c(NC(=O)N2CCCCC2C)c1 (configuration not stated)
101 % of control

Here is the next compound: c1ccc(C2C(c3ccccc3)N2CCCN2CCOCC2)cc1 (configuration not stated)
107 % of control

Here is the next compound: Cc1ccc2c(c1)C(=O)CCS2
100 % of control

Here is the next compound: CCCSc1ccc2c3c(cccc13)C(=O)OC2=O
98 % of control

Here is the next compound: CCC/C(=C\C(=O)O)CC
96 % of control

Here is the next compound: O=C(COCC(=O)N/N=C/C=C/c1ccccc1)N/N=C/C=C/c1ccccc1
104 % of control

Here is the next compound: CN(C)c1ccc(/C=N/NC(=O)c2ccccc2NC(=O)C2CC2)cc1
104 % of control

Here is the next compound: CN(C)C(=S)SCN1CCCCC1
97 % of control

Here is the next compound: COC1OC(COC(c2ccccc2)(c2ccccc2)c2ccccc2)C(O)C(O)C1O (configuration not stated)
89 % of control

Here is the next compound: CCCCNC(=O)Nc1ccccc1CC
96 % of control
